- target under test: KRas(G12V) (Homo sapiens (Human), UniProt P01116, G12V)
- Sequence (P01116-2 other isoform, or with tags, fused parts or gaps G12V): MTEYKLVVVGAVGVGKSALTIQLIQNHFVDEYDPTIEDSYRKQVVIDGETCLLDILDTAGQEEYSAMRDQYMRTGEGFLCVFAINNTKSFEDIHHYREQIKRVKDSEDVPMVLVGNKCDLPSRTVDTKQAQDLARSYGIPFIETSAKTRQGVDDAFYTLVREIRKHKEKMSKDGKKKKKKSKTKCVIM
- procedure details: KRas(G12V) GDP HTRF (BODIPY-GDP exchange TR-FRET)
observable: pIC50
Keep it numeric: pIC50 is minus log10 of the concentration in mol/L.

# count of solved cases: 5
| compound | target under test | reported value |
| --- | --- | --- |
| Cc1cc(N)nc(-c2cc3ncnc4c3c(c2Cl)OCCN4C2(c3cccnc3N)CC2)c1C(F)(F)F | KRas(G12V) (Homo sapiens (Human), UniProt P01116, G12V) | 6.00 |
| Cc1cc(N)nc(-c2cc3ncnc4c3c(c2Cl)OCCN4Cc2scnc2N)c1C(F)(F)F | KRas(G12V) (Homo sapiens (Human), UniProt P01116, G12V) | 6.29 |
| Cc1cc(N)nc(-c2c(Cl)c3c4c(nc(OC[C@@]56CCCN5C[C@H](F)C6)nc4c2F)N([C@@H](c2cccnc2N)C2CC2)CCO3)c1C(F)(F)F (atropisomer, axis not shown; (aS)) | KRas(G12V) (Homo sapiens (Human), UniProt P01116, G12V) | 9.82 |
| Cc1cc(N)nc(-c2c(Cl)c3c4c(nc(OC[C@@H]5CC[C@H]6CN(CC(F)(F)F)CCN56)nc4c2F)N([C@H](C)c2cccnc2N)CCO3)c1C(F)(F)F (atropisomer, axis not shown; (aS)) [Example 129a] | KRas(G12V) (Homo sapiens (Human), UniProt P01116, G12V) | 9.51 |
| COc1nc2c3c(c(Cl)c(-c4nc(N)cc(C)c4C(F)(F)F)c(F)c3n1)OCCN2[C@H](C)c1cccnc1N (atropisomer, axis not shown) | KRas(G12V) (Homo sapiens (Human), UniProt P01116, G12V) | 9.35 |

Param item = Cc1cc(N)nc(-c2c(Cl)c3c4c(nc(OC[C@@H]5CC[C@H]6CO[C@@H](C)CN56)nc4c2F)N([C@H](C)c2cccnc2N)CCO3)c1C(F)(F)F (atropisomer, axis not shown; (aS)) [Example 93a] ; retrieve measured pIC50.
10.05

Try this compound next: CNc1cnc(N)c([C@@H](C)N2CCOc3c(Cl)c(-c4nc(N)cc(C)c4C(F)(F)F)c(F)c4nc(OC[C@@]56CCCN5C[C@H](F)C6)nc2c34)c1 (atropisomer, axis not shown; (aS))
9.66

Try this compound next: CN1CCOc2c(Cl)c(-c3cccc4sc(N)nc34)cc3nc(OC[C@@]45CCCN4C[C@H](F)C5)nc1c23
8.29

Try this compound next: Cc1cc(N)nc(-c2c(Cl)c3c4c(nc(OC[C@@H]5CC(F)(F)CN5C)nc4c2F)N([C@H](C)c2cncc(N)c2)CCO3)c1C(F)(F)F (single isomer, unassigned) [Example 70a]
9.31

Try this compound next: Cc1cc(N)nc(-c2c(Cl)c3c4c(nc(OCC5CCCN(C)C5)nc4c2F)N([C@H](C)c2cccnc2N)CCO3)c1C(F)(F)F (some centres unmarked)
10.15

Try this compound next: Cc1cc(N)nc(-c2c(Cl)c3c4c(nc(OC[C@@H]5CC[C@H]6COCCN65)nc4c2F)N([C@H](C)c2cncc(N)c2)CCO3)c1C(F)(F)F (single isomer, unassigned) [Example 69a]
9.96
